# System: NCI-H23 lung
# testSummary: NCI-60 one-dose screen, 48 h (100 = growth as untreated, 0 = no growth, -100 = all killed)
# testConditions: 10 µM unless noted
This is part of a sample that, as a whole, favours compounds with a hit. Of some 83,000 tested, about 20% had one in any assay.
attributeMeasured: growth (%)
Give the number; % is assumed, so skip it.

Q: Value lookup for growth; key = O=C(/C=C/C12c3ccccc3C(c3ccccc31)C1C(=O)NC(=O)C12)c1ccc(Br)cc1 (stereo not given)
Ans: 50

Q: Value lookup for growth; key = COc1cccc(NCc2nnc(Nc3ccc(Cl)cc3)c3ccccc23)c1
Ans: 2.05

Q: Value lookup for growth; key = N#Cc1nc(-c2ccccc2)oc1S(=O)(=O)N1CCN(c2ccc(F)cc2)CC1
Ans: 80.8

Q: Value lookup for growth; key = O=S(=O)(NCCNc1nccc(-c2c(-c3ccc(F)c(O)c3)nc3sccn23)n1)c1ccc(F)cc1
Ans: 36.6

Q: Value lookup for growth; key = COc1cc(-c2nc3c(ncc4ccc(=O)n(-c5ccccc5)c43)s2)cc(OC)c1OC
Ans: 80.5
